# tested.target: ~100 representative kinases (Homo sapiens, UniProt Q8IU85)
# Construct: Recombinant protein kinase domains with a concentration of 2 μM
# Sequence (Q8IU85 whole entry, the tested form may be a part): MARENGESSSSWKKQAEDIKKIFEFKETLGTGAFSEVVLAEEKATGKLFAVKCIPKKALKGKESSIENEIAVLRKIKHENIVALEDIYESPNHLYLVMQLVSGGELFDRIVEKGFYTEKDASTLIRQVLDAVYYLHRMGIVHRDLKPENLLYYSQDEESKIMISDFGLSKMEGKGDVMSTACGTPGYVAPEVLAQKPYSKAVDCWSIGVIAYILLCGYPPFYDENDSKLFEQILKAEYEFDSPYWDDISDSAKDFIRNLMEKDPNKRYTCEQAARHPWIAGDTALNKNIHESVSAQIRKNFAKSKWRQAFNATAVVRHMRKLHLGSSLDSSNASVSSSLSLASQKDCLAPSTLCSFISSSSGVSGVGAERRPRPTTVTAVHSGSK
# experiment.summary: DSF 100 kinase selectivity screen;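 further: compound tested at 20 µM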
# Format: binding
# test.conditions: Protein CAMK1D; average of three replicates
Overview of recorded dTm for various compounds
property: dTm (K)

> print(dat)
                                chem.smiles  property  unit.of.measure    val
1  COc1ccc(NC(=O)C2(C(=O)Nc3cccc(-c4c[nH]c5ncnc(N6CCOCC6)c45)c3)CC2)cc1       dTm                K  -1.41
2  COc1cc(NC(=O)C2(C(=O)Nc3cccc(-c4c[nH]c5ncnc(N6CCOCC6)c45)c3)CC2)ccc1F       dTm                K  -0.74
3  Cc1ccc(NC(=O)C2(C(=O)Nc3cccc(-c4c[nH]c5ncnc(N6CCOCC6)c45)c3)CC2)cc1       dTm                K  -1.76
4  Cc1cc(NC(=O)C2(C(=O)Nc3ccc(F)cc3)CC2)cc(-c2c[nH]c3ncnc(N4CCOCC4)c23)c1       dTm                K   1.65
5  CCNc1nc(Nc2cc(F)c(C(=O)N3CCOCC3)cc2OC)ncc1C(F)(F)F       dTm                K  -0.16
6  C[C@@H]1CN(c2cc(-c3n[nH]c4ccc(OC5(C)CC5)cc34)ncn2)C[C@H](C)O1       dTm                K   2.16
7  O=C(Nc1cccc(-c2c[nH]c3ncnc(N4CCOCC4)c23)c1)C1(C(=O)Nc2ccc(F)c(Br)c2F)CC1       dTm                K   2.09

Data credit: paper PMC12136037
